Here, each record is paired with measured pIC50 data.
# Tested system: Exon19 deletion (Δ746-750) EGFR phosphorylation in HCC827 NSCLC cells (Homo sapiens, UniProt P00533, DEL746-750)
# Construct: endogenous in cells
# Sequence (P00533 with tags, fused parts or gaps DEL746-750): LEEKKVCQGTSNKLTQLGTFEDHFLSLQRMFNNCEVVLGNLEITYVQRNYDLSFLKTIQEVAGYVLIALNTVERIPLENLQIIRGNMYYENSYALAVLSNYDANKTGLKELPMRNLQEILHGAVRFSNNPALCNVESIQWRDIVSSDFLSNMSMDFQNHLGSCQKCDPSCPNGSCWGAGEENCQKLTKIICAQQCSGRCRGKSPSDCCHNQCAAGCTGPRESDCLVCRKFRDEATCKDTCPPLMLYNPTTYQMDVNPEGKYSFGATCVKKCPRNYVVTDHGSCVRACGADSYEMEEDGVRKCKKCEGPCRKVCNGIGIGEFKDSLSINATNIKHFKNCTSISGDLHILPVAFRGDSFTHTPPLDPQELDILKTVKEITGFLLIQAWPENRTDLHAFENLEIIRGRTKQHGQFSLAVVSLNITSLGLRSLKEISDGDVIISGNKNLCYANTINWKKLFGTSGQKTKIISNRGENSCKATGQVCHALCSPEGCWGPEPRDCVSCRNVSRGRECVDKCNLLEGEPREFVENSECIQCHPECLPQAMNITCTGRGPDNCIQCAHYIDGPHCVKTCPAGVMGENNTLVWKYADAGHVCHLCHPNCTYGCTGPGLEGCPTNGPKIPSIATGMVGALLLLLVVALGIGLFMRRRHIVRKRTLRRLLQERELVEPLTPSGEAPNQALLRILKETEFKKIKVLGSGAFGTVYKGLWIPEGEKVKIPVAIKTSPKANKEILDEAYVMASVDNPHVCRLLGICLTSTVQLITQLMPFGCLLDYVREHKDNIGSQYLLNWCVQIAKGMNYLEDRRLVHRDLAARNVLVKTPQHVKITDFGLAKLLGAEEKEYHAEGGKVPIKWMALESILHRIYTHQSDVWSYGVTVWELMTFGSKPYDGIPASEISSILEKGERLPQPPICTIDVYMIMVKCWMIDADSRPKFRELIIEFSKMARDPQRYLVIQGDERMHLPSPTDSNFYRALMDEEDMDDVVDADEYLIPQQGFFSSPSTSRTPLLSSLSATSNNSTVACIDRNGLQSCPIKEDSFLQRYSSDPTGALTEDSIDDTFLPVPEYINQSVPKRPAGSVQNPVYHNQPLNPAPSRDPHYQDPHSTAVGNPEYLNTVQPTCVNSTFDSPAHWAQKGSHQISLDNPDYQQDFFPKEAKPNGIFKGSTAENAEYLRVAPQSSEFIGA
# Protocol details: Detection of pEGFR on NSCLC cell lines (MSD multiplex), HCC827
# Experimental conditions: HCC827 (Δ746-750) cells, serum starved, 60 min compound
pIC50: −log10 of the molar value.

{"Molecule": "C=CC(=O)Nc1cccc(-n2c(=O)ccc3cnc(Nc4ccc(NC5CN(CCF)C5)cc4OC)nc32)c1", "pIC50": 8.30}
{"Molecule": "C=CC(=O)Nc1cccc(-n2c(=O)ccc3cnc(Nc4ccc(N5CCN(C)CC5)cc4OC)nc32)c1", "pIC50": 8.47}
{"Molecule": "C=CC(=O)Nc1cccc(-n2c(=O)cc(C)c3cnc(Nc4ccc(N5CCN(C)CC5)cc4OC)nc32)c1", "pIC50": 8.10}

----------
# Tested system: T790M mutant EGFR phosphorylation in H1975 (T790M/L858R) NSCLC cells (Homo sapiens, UniProt P00533, L858R/T790M)
# Construct: endogenous in cells
# Sequence (P00533 25-1210 T790M/L858R): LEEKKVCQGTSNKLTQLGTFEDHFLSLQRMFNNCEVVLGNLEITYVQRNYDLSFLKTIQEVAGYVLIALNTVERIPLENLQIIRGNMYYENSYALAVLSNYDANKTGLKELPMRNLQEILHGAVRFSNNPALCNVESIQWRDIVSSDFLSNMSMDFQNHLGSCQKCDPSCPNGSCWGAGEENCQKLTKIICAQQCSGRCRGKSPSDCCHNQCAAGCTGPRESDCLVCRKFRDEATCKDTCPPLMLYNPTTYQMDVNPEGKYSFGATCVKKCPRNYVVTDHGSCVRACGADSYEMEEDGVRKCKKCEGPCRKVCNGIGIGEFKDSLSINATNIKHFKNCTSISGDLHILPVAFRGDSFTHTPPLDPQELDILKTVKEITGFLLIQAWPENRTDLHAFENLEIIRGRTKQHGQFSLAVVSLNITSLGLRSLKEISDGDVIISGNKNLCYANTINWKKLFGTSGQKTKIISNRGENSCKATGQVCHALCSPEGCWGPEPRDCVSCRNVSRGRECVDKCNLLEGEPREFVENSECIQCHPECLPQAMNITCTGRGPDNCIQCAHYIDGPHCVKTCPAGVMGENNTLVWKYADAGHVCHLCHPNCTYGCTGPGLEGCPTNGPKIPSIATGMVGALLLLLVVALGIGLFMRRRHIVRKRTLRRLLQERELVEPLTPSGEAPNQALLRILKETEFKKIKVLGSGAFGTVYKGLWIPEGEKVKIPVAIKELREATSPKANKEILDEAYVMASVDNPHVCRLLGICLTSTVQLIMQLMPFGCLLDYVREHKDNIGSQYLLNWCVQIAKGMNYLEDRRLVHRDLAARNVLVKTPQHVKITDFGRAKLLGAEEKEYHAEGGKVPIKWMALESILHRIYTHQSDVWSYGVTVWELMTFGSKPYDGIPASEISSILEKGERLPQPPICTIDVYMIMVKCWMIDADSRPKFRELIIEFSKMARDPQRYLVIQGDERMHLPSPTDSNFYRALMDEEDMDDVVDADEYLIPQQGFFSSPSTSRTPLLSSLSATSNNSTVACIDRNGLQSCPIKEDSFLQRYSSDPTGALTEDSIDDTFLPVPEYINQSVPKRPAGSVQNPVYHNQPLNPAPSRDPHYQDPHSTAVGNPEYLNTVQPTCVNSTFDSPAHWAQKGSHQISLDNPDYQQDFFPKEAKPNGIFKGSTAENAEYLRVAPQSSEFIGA
# Protocol details: Detection of pEGFR on NSCLC cell lines (MSD multiplex), H1975
# Experimental conditions: serum starved, 60 min compound
Each record is given satisfied if its reported IC50 is strictly below 3 nM. Records at or above 3 nM are given not satisfied.

{"Molecule": "C=CC(=O)Nc1ccc(F)c(-n2c(=O)ccc3cnc(Nc4ccc(N5CCN(C)CC5)cc4OC)nc32)c1 [Example 10]", "Category label": "satisfied"}
{"Molecule": "C=CC(=O)Nc1cccc(-n2c(=O)ccc3cnc(Nc4ccc(NC5CN(CCF)C5)cc4OC)nc32)c1 [Example 11]", "Category label": "not satisfied"}
{"Molecule": "C=CC(=O)Nc1cccc(-n2c(=O)ccc3cnc(Nc4ccc(N5CCN(C)CC5)cc4OC)nc32)c1 [Example 1]", "Category label": "not satisfied"}
{"Molecule": "C=CC(=O)Nc1cccc(-n2c(=O)c(CC)cc3cnc(Nc4ccc(N5CCN(C)CC5)cc4OC)nc32)c1 [Example 6]", "Category label": "not satisfied"}
{"Molecule": "C=CC(=O)Nc1cccc(-n2c(=O)cc(C)c3cnc(Nc4ccc(N5CCN(C)CC5)cc4OC)nc32)c1 [Example 5]", "Category label": "satisfied"}

----------
# Tested system: wild-type EGFR phosphorylation in A549 NSCLC cells (Homo sapiens, UniProt P00533)
# Construct: Wild-type A549 cells were challenged with 100 ng/ml EGF for 15 min before collection; endogenous in cells
# Sequence (P00533 25-1210): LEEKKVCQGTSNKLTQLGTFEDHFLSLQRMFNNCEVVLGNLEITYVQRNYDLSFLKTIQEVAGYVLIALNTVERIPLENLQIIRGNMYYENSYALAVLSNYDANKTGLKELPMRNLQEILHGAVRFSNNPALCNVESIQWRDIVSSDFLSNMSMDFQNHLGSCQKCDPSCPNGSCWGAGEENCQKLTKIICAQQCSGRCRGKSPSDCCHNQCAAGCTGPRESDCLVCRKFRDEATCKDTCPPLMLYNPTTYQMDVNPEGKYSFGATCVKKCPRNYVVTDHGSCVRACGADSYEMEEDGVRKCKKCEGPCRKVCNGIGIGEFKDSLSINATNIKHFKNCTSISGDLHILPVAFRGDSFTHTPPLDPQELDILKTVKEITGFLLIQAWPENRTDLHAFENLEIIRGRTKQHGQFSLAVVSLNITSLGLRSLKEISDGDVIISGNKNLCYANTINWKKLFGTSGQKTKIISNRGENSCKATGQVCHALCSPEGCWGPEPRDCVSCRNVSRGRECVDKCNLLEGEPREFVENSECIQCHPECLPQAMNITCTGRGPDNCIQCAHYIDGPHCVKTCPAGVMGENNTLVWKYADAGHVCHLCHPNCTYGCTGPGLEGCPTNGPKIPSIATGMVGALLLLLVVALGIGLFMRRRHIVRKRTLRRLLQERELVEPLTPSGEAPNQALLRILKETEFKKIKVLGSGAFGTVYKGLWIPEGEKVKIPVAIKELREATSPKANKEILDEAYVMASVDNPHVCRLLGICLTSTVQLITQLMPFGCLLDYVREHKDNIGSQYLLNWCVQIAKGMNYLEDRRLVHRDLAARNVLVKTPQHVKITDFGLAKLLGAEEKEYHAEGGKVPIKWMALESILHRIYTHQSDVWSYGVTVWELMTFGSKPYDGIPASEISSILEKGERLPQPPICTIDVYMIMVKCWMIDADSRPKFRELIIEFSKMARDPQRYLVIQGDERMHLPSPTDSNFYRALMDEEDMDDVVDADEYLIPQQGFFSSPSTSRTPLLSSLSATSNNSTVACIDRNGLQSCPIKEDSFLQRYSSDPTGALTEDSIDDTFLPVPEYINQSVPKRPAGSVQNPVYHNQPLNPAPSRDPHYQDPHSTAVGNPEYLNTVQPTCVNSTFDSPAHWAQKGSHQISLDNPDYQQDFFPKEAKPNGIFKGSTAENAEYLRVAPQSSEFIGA
# Protocol details: Detection of pEGFR on NSCLC cell lines (MSD multiplex), A549
# Experimental conditions: 60 min compound, 100 ng/ml EGF for 15 min
Here, each record is paired with measured IC50 data.
Outcome measure: IC50 (µM)

{"Molecule": "C=CC(=O)Nc1cccc(-n2c(=O)ccc3cnc(Nc4ccc(N5CCN(C)CC5)cc4OC)nc32)c1", "Recorded result": 0.076}
{"Molecule": "C=CC(=O)Nc1ccc(F)c(-n2c(=O)ccc3cnc(Nc4ccc(N5CCN(C)CC5)cc4OC)nc32)c1", "Recorded result": 0.084}
{"Molecule": "C=CC(=O)Nc1cccc(-n2c(=O)ccc3cnc(Nc4ccc(NC5CN(CCF)C5)cc4OC)nc32)c1", "Recorded result": 0.155}
{"Molecule": "C=CC(=O)Nc1cccc(-n2c(=O)c(CC)cc3cnc(Nc4ccc(N5CCN(C)CC5)cc4OC)nc32)c1", "Recorded result": 0.0082}
{"Molecule": "C=CC(=O)Nc1cccc(-n2c(=O)cc(C)c3cnc(Nc4ccc(N5CCN(C)CC5)cc4OC)nc32)c1", "Recorded result": 0.323}
